system_name: Human CGRP receptors (consisting of CRLR and RAMP1) (Homo sapiens, UniProt O60894+Q16602)
Construct: made in house; host or cells: Sf21 insect cells (baculovirus, pFastBac dual vector); membrane homogenates
Sequence (Q16602 23-461): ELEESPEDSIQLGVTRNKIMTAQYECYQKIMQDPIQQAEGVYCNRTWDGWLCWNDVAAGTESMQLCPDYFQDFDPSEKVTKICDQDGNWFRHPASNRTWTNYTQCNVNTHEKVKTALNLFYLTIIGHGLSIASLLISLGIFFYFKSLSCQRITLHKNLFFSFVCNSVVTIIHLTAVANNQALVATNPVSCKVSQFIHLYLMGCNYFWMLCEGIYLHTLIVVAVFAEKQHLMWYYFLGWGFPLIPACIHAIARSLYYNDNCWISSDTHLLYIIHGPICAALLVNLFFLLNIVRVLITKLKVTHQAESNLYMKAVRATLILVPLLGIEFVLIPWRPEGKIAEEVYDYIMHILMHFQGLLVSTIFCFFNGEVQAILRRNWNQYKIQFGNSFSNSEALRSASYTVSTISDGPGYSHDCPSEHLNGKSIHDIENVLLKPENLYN
Sequence (O60894 27-148): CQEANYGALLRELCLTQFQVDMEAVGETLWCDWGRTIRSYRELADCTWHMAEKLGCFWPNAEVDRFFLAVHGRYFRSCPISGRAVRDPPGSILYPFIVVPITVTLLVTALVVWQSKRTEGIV
method_notes: Radioligand binding assay (3H-telcagepant displacement)
assay_setup: 0.5 nM 3H-telcagepant, Sf21 cell membranes, Ki by Cheng-Prussoff; read-out: pKi average (converted)

>  <smiles_structure>
Cc1cc(C[C@@H](NC(=O)N2CCC(N3Cc4ccccc4NC3=O)CC2)C(=O)N2CCC3(CCN(C4CCNCC4)CC3)C2)cc2cn[nH]c12

>  <Ki (nM)>
0.0794

$$$$
>  <smiles_structure>
CN[C@H](C)C(=O)N1CCC2(CC1)CCN(C(=O)[C@@H](Cc1cc(C)c3[nH]ncc3c1)NC(=O)N1CCC(n3c(=O)[nH]c4ncccc43)CC1)C2

>  <Ki (nM)>
0.0794

$$$$
>  <smiles_structure>
CN[C@H](C)C(=O)N1CCC2(CC1)CCN(C(=O)[C@@H](Cc1cc(C)c3[nH]ncc3c1)NC(=O)N1CCC3(CC1)OC(=O)Nc1ncccc13)C2

>  <Ki (nM)>
0.1

$$$$
>  <smiles_structure>
Cc1cc(C[C@@H](NC(=O)N2CCC(n3c(=O)[nH]c4ncccc43)CC2)C(=O)N2CCC3(CCN(c4ccncc4)CC3)C2)cc2cn[nH]c12

>  <Ki (nM)>
0.0501

$$$$

====

method_notes: Pharmacokinetic profiling in rat
Assay type: in vivo, male Sprague Dawley rats
assay_setup: male, Sprague Dawley, plasma, inhaled or intranasal

>  <compound>
CN[C@H](C)C(=O)N1CCC2(CC1)CCN(C(=O)[C@@H](Cc1cc(C)c3[nH]ncc3c1)NC(=O)N1CCC(c3cc4ccccc4[nH]c3=O)CC1)C2 [Example 2]

>  <bioavailability (%)>
20

$$$$

====

Measured Kb, listed per entry.
system_name: human CGRP receptor (Homo sapiens, UniProt O60894+Q16602)
Construct: The human neuroblastoma cell line SK-N-MC endogenously expressing the human CGRP receptor; endogenous in cells; host or cells: SK-N-MC human neuroblastoma cells
Sequence (Q16602 23-461): as the sequence (Q16602 23-461) above
Sequence (O60894 27-148): as the sequence (O60894 27-148) above
method_notes: cAMP functional assay (HTRF) in SK-N-MC cells
Type: cell-based
assay_setup: read-out: pKb average (converted)

>  <compound>
CN[C@H](C)C(=O)N1CCC2(CC1)CCN(C(=O)[C@@H](Cc1cc(C)c3[nH]ncc3c1)NC(=O)N1CCC3(CC1)OC(=O)Nc1ncccc13)C2 [Example 5]

>  <Kb>
0.501 nM

$$$$
>  <compound>
CN[C@H](C)C(=O)N1CCC2(CC1)CCN(C(=O)[C@@H](Cc1cc(C)c3[nH]ncc3c1)NC(=O)N1CCC(N3Cc4ccccc4NC3=O)CC1)C2 [Example 6]

>  <Kb>
0.631 nM

$$$$
>  <compound>
CN[C@H](C)C(=O)N1CCC2(CC1)CCN(C(=O)[C@@H](Cc1cc(C)c3[nH]ncc3c1)NC(=O)N1CCC(n3c(=O)[nH]c4ncccc43)CC1)C2 [Example 3]

>  <Kb>
0.631 nM

$$$$

====

method_notes: Thermodynamic solubility profiling
Assay type: physicochemical
assay_setup: aqueous buffer, thermodynamic from solid; pH 7.4 (PBS buffer), 24 h at rt
Measured solubility thermodynamic at 24 h, listed per entry.

>  <compound>
Cc1cc(C[C@@H](NC(=O)N2CCC(n3c(=O)[nH]c4ncccc43)CC2)C(=O)N2CCC3(CCN(c4ccncc4)CC3)C2)cc2cn[nH]c12 [Example 7]

>  <solubility thermodynamic at 24 h / µM>
2160

$$$$
>  <compound>
CN[C@H](C)C(=O)N1CCC2(CC1)CCN(C(=O)[C@@H](Cc1cc(C)c3[nH]ncc3c1)NC(=O)N1CCC(n3c(=O)[nH]c4ncccc43)CC1)C2 [Example 3]

>  <solubility thermodynamic at 24 h / µM>
1550

$$$$
>  <compound>
Cc1cc(C[C@@H](NC(=O)N2CCC(N3Cc4ccccc4NC3=O)CC2)C(=O)N2CCC3(CCN(C4CCNCC4)CC3)C2)cc2cn[nH]c12 [Example 4]

>  <solubility thermodynamic at 24 h / µM>
1150

$$$$
>  <compound>
CN[C@H](C)C(=O)N1CCC2(CC1)CCN(C(=O)[C@@H](Cc1cc(C)c3[nH]ncc3c1)NC(=O)N1CCC(c3cc4ccccc4[nH]c3=O)CC1)C2 [Example 2]

>  <solubility thermodynamic at 24 h / µM>
800

$$$$
>  <compound>
CN[C@H](C)C(=O)N1CCC2(CC1)CCN(C(=O)[C@@H](Cc1cc(C)c3[nH]ncc3c1)NC(=O)N1CCC(N3Cc4ccccc4NC3=O)CC1)C2 [Example 6]

>  <solubility thermodynamic at 24 h / µM>
1570

$$$$
>  <compound>
CN[C@H](C)C(=O)N1CCC2(CC1)CCN(C(=O)[C@@H](Cc1cc(C)c3[nH]ncc3c1)NC(=O)N1CCC3(CC1)OC(=O)Nc1ncccc13)C2 [Example 5]

>  <solubility thermodynamic at 24 h / µM>
1460

$$$$

====

system_name: human CGRP receptor (Homo sapiens, UniProt O60894+Q16602)
Construct: The human neuroblastoma cell line SK-N-MC endogenously expressing the human CGRP receptor; endogenous in cells; host or cells: SK-N-MC human neuroblastoma cells
method_notes: cAMP functional assay (HTRF) in SK-N-MC cells
Format: cell-based
assay_setup: read-out: pKb average (converted)

>  <smiles_structure>
Cc1cc(C[C@@H](NC(=O)N2CCC(N3Cc4ccccc4NC3=O)CC2)C(=O)N2CCC3(CCN(C4CCNCC4)CC3)C2)cc2cn[nH]c12

>  <Kb>
0.794 nM

$$$$
>  <smiles_structure>
Cc1cc(C[C@@H](NC(=O)N2CCC(n3c(=O)[nH]c4ncccc43)CC2)C(=O)N2CCC3(CCN(C4CCNCC4)CC3)C2)cc2cn[nH]c12

>  <Kb>
0.251 nM

$$$$
>  <smiles_structure>
CN[C@H](C)C(=O)N1CCC2(CC1)CCN(C(=O)[C@@H](Cc1cc(C)c3[nH]ncc3c1)NC(=O)N1CCC(c3cc4ccccc4[nH]c3=O)CC1)C2

>  <Kb>
1.26 nM

$$$$
>  <smiles_structure>
Cc1cc(C[C@@H](NC(=O)N2CCC(n3c(=O)[nH]c4ncccc43)CC2)C(=O)N2CCC3(CCN(c4ccncc4)CC3)C2)cc2cn[nH]c12

>  <Kb>
0.398 nM

$$$$

====

method_notes: Thermodynamic solubility profiling
Format: physicochemical
assay_setup: aqueous buffer, thermodynamic from solid; pH 6 (Sodium Phosphate Buffer), 24 h at rt

>  <smiles_structure>
Cc1cc(C[C@@H](NC(=O)N2CCC(n3c(=O)[nH]c4ncccc43)CC2)C(=O)N2CCC3(CCN(C4CCNCC4)CC3)C2)cc2cn[nH]c12

>  <solubility thermodynamic at 24 h / µM>
1030

$$$$
>  <smiles_structure>
Cc1cc(C[C@@H](NC(=O)N2CCC(n3c(=O)[nH]c4ncccc43)CC2)C(=O)N2CCC3(CCN(c4ccncc4)CC3)C2)cc2cn[nH]c12

>  <solubility thermodynamic at 24 h / µM>
3630

$$$$
>  <smiles_structure>
CN[C@H](C)C(=O)N1CCC2(CC1)CCN(C(=O)[C@@H](Cc1cc(C)c3[nH]ncc3c1)NC(=O)N1CCC3(CC1)OC(=O)Nc1ncccc13)C2

>  <solubility thermodynamic at 24 h / µM>
1580

$$$$
>  <smiles_structure>
CN[C@H](C)C(=O)N1CCC2(CC1)CCN(C(=O)[C@@H](Cc1cc(C)c3[nH]ncc3c1)NC(=O)N1CCC(N3Cc4ccccc4NC3=O)CC1)C2

>  <solubility thermodynamic at 24 h / µM>
1500

$$$$
>  <smiles_structure>
CN[C@H](C)C(=O)N1CCC2(CC1)CCN(C(=O)[C@@H](Cc1cc(C)c3[nH]ncc3c1)NC(=O)N1CCC(n3c(=O)[nH]c4ncccc43)CC1)C2

>  <solubility thermodynamic at 24 h / µM>
1430

$$$$
>  <smiles_structure>
CN[C@H](C)C(=O)N1CCC2(CC1)CCN(C(=O)[C@@H](Cc1cc(C)c3[nH]ncc3c1)NC(=O)N1CCC(c3cc4ccccc4[nH]c3=O)CC1)C2

>  <solubility thermodynamic at 24 h / µM>
1290

$$$$
>  <smiles_structure>
Cc1cc(C[C@@H](NC(=O)N2CCC(N3Cc4ccccc4NC3=O)CC2)C(=O)N2CCC3(CCN(C4CCNCC4)CC3)C2)cc2cn[nH]c12

>  <solubility thermodynamic at 24 h / µM>
1350

$$$$

====

method_notes: Pharmacokinetic profiling in cynomolgus monkey
Type: in vivo, male Cynomolgus Monkeys
assay_setup: male, plasma; Cynomolgus monkey sc; 0.5 mg/kg; acidified saline

>  <molecule>
CN[C@H](C)C(=O)N1CCC2(CC1)CCN(C(=O)[C@@H](Cc1cc(C)c3[nH]ncc3c1)NC(=O)N1CCC(c3cc4ccccc4[nH]c3=O)CC1)C2 [Example 2]

>  <bioavailability>
100%

$$$$
